The origin of these recorded values is patent US20220204611A1.

# Target: T1, recombinant soluble human TREM2 protein (human TREM2 ECD-FlagHis) (human, UniProt Q9NZC2 19-174)
# T1 sequence: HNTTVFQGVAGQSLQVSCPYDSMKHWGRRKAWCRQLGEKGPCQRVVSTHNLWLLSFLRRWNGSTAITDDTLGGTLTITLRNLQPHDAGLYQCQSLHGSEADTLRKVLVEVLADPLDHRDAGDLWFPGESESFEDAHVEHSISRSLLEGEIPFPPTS
# Procedure summary: Octet BLI binning; competitor: load Ab 26F2
Reported metric: sandwich binding signal

INSERT INTO results (binder, recorded_result) VALUES
  ('10E3 (antibody, human IgG2, V domains shown, human IgG2 from hybridoma) VH: EVQLVQSGAEVKKPGESLMISCKGSGYSFTNYWIGWVRQMPGKGLEWMGIIYPGDSDTRYSPSFQGQVTISADKSISTAYLQWSSLKASDTAMYFCARRRQGIWGDALDIWGQGTLVTVSS VL: EIVMTQSPATLSVSPGERATLSCRASQSVSSNLAWFQQKPGQAPRLLIYGASTRATGIPARFSVSGSGTEFTLTISSLQSEDFAFYYCLQDNNWPPTFGPGTKVDIK', 0.354),
  ('6E7 (antibody, human IgG2, V domains shown, human IgG2 from hybridoma) VH: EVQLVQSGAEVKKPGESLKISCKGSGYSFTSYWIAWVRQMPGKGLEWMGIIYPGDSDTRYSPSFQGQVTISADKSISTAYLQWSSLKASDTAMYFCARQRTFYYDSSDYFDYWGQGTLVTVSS VL: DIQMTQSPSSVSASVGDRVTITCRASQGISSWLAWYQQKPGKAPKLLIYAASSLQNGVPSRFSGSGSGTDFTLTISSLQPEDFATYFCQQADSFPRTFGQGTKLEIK', 0.506),
  ('4C5 (antibody, V domains shown, human IgG2 from hybridoma) VH: EVQLVQSGAEVKKPGESLKISCKGSGHSFTNYWIAWVRQMPGKGLEWMGIIYPGDSDTRYSPSFQGQVTISADKSISTAYLQWSSLKASDTAVYFCARQRTFYYDSSGYFDYWGQGTLVTVSS VL: DIQMTQSPSSVSASVGDRVTITCRASQGISNWLAWYQQKPGKAPKLLIYAASSLQVGVPLRFSGSGSGTDFTLTISSLQPEDFATYYCQQADSFPRNFGQGTKLEIK', 0.31),
  ('32E3 (antibody, human IgG2, V domains shown, human IgG2 from hybridoma) VH: EVQLVQSGAEVKKPGESLKISCKGSGYSFTSYWIGWVRQMPGKGLEWMGIIYPGDSDTRYSPSFQGQVTISADKSISTAYLQWSTLKASDTAIYYCARHDIIPAAPGAFDIWGQGTMVTVSS VL: EFVLTQSPGTLSLSPGERATLSCRASQIISSNYLAWYQQKPGQAPRLLIYSASSRATGIPDRFSGSGSGTDFTLTISRLEPEDFAVYYCQQFDSSPITFGRGTRLDIK', 0.143);
